TGI overview
Tested on: CCRF-CEM leukemia
protocolDetails: NCI tumour cell line growth inhibition, 48 h

- molecule: "CC(=O)NS(=O)(=O)c1ccc(NC(=O)c2c3ccccc3nc3ccccc23)cc1"
  TGI: "> 100 µM"
- molecule: "C/C(N=Nc1nc2ccccc2s1)=C1/C=CC=CN1O"
  TGI: "> 100 µM"
- molecule: "COC(=O)NN(C(=O)OC)c1c(-c2ccccc2)nc(SC)n1N"
  TGI: "> 100 µM"
- molecule: "COC(=O)[C@@H](C)C[C@H](Cc1ccccc1)NC(=O)c1nc([C@@H](C[C@H](C(C)C)N(C)C(=O)[C@@H](NC(=O)[C@H]2CCCCN2C)C(C)C)OC(C)=O)sc1C"
  TGI: "> 16.7 µM"
- molecule: "CC(C)(C)C1=Cc2cc3cc(C(C)(C)C)[nH]c(=O)c3cc2S(=O)(=O)N1"
  TGI: "56.9 µM"
- molecule: "CCCC[C@H](NC(=O)[C@H]1CCCN1C)C(=O)N(C)[C@H](C[C@@H](OC(C)=O)c1nc(C(=O)N[C@@H](Cc2ccccc2)C[C@H](C)C(=O)OCC)cs1)C(C)C"
  TGI: "6.41 µM"
- molecule: "CCCCOC(C)(C)/C=C/C(O)[C@](C)(O)[C@H]1[C@H](O)C[C@@]2(C)[C@@H]3CCc4c(cc(OC5OC(CO)C(O)C(O)C5O)c(O)c4C)C3(C)C(=O)C[C@]12C (stereo not given in full)"
  TGI: "> 100 µM"
- molecule: "C[N+](C)(C)CC(=O)N/N=C(/Cc1nc2c3c(ccc2[nH]c1=O)C(=O)c1ccccc1C3=O)C(=O)Nc1ccc(Cl)c(Cl)c1"
  TGI: "> 100 µM"
- molecule: "COc1cccc(NC(=O)CC(=O)N2N=C(N(CCC#N)c3ccc(Cl)cc3)CC2c2ccccc2)c1 (stereo not given)"
  TGI: "> 100 µM"
- molecule: "COc1cccc(-c2cc(=O)c3c(C)cc(C)nc3[nH]2)c1"
  TGI: "2.87 µM"
- molecule: "CN(C)NC(=S)Nc1ccccc1Br"
  TGI: "> 100 µM"
- molecule: "O=C(NC(Cc1c[nH]c2ccccc12)C(=O)O)/C(=C/c1ccccc1O)NC(=O)c1ccccc1 (stereo not given)"
  TGI: "> 100 µM"
- molecule: "COC(=O)CCC1CCc2c(OC)ccc(O)c2C1=O (stereo not given)"
  TGI: "> 100 µM"
- molecule: "Nc1cc2cccc[n+]2c2cc(Cl)ccc12"
  TGI: "35.3 µM"
- molecule: "COc1cccc(/C=C/C(=O)c2cccc(Nc3nc(Nc4ccccc4)nc(Nc4ccccc4)n3)c2)c1"
  TGI: "45.5 µM"
- molecule: "O=C1C(c2c(O)[nH]c3ccc(S(=O)(=O)O)cc23)=Nc2ccccc21"
  TGI: "> 100 µM"
- molecule: "CCCc1[nH]nc(CCC(=O)N(Cc2ccccc2)Cc2ccccc2)c1CC"
  TGI: "> 100 µM"
- molecule: "Cc1c(C(=O)/C=C/c2csc3ccccc23)[n+](=O)c2ccccc2n1[O-]"
  TGI: "7.56 µM"
- molecule: "O=C(CC(=O)CC(O)(C(F)(F)F)C(F)(F)F)CC(O)(C(F)(F)F)C(F)(F)F"
  TGI: "> 10 µM"
- molecule: "C/C(=C\\c1ccccc1)C(=O)CCN1CCOCC1"
  TGI: "> 67.2 µM"
- molecule: "CC1=NCCc2c1[nH]c1cc(O)ccc21"
  TGI: "> 100 µM"
- molecule: "COc1c(CCC[P+](c2ccccc2)(c2ccccc2)c2ccccc2)cc2c(c1OC)OCO2"
  TGI: "> 100 µM"
- molecule: "COc1ccc(N2C(C)=C(C#N)C34C(=O)N(c5ccccc5)C(=O)C3=C(O)C=CC24O)cc1 (stereo not given)"
  TGI: "15.6 µM"
- molecule: "CC1(C)O[C@@H]2COC(=O)[C@@H]2O1"
  TGI: "> 100 µM"
- molecule: "C[C@H](Nc1ncnc2nc[nH]c12)c1cc2cccc(Cl)c2c(=O)n1-c1ccccc1"
  TGI: "> 100 µM"
- molecule: "COc1cc(/C=C/C(=O)O)ccc1C(=O)O/C=C/c1ccccc1"
  TGI: "> 100 µM"
- molecule: "O=C1/C(=C/c2ccccc2S)N=C(c2ccccc2)N1c1nc2ccc(Sc3ccccc3)cc2[nH]1"
  TGI: "> 100 µM"
- molecule: "Cc1ccc(C(=O)O/N=C2/CCC/C2=C\\c2ccccc2)cc1"
  TGI: "> 100 µM"
- molecule: "ClCCn1c(CCl)nc2ccc(Cl)cc21"
  TGI: "1.65 µM"
- molecule: "Cc1nn(C(=O)Cc2ccccc2)c2c1C(c1ccccc1O)SC(N)=N2 (stereo not given)"
  TGI: "> 100 µM"
- molecule: "O=C1c2ccccc2CN1c1ccc(O)cc1"
  TGI: "> 100 µM"
- molecule: "COc1ccc2nc3cc([N+](=O)[O-])ccc3c(NCCCCCN(C)C)c2c1"
  TGI: "3.09 µM"
- molecule: "Cc1ccc(/C=C2\\CN(C(=O)OC(C)(C)C)C/C(=C\\c3ccc(C)cc3)C2=O)cc1"
  TGI: "> 100 µM"
- molecule: "CC(=O)NNc1nc(C)c(C(=O)NNC(=O)C(=O)Nc2ccccc2C#N)s1"
  TGI: "> 100 µM"
- molecule: "Oc1ccc(-c2nnc3sc(-c4ccc(F)cc4)nn23)cc1"
  TGI: "> 100 µM"
- molecule: "NC(CSCc1ccccc1)C(=O)O (stereo not given)"
  TGI: "> 100 µM"
- molecule: "O=c1cc(/C=C/c2ccc(O)c(O)c2)oc(/C=C/c2ccc(O)c(O)c2)c1"
  TGI: "7.74 µM"
- molecule: "O=C1CCSSCCC(=O)NCCN1"
  TGI: "> 100 µM"
- molecule: "COc1cc2c(cc1OCCCCOc1cc(-c3ccc(F)cc3)nc(C)n1)N=C[C@@H]1CCCN1C2=O"
  TGI: "3.17 µM"
- molecule: "CCOC1CC(=O)c2c(Br)sc(Br)c21 (stereo not given)"
  TGI: "50.8 µM"

---

Tested on: SNB-75 CNS
protocolDetails: NCI tumour cell line growth inhibition, 48 h
TGI overview

- compound: "COc1cc2c(cc1OC)C1c3ccccc3CCN1CC2 (stereo unspecified)"
  studySystem: "SNB-75 CNS"
  TGI: "> 100 µM"
- compound: "COc1ccc(C(=O)/C=C/c2ccc(/C=C/c3cc(OC)c(OC)c(OC)c3)cc2)cc1"
  studySystem: "SNB-75 CNS"
  TGI: "47.7 µM"
- compound: "CCOP(=O)(OCC)C1C(CO)OC(n2ccc(=O)[nH]c2=O)C1O (stereo unspecified)"
  studySystem: "SNB-75 CNS"
  TGI: "> 100 µM"
- compound: "COC(=O)c1ccccc1/C=C1/Cc2ccccc2C1=O"
  studySystem: "SNB-75 CNS"
  TGI: "> 100 µM"
- compound: "COc1cccc(-c2cc(=O)c3c(C)cc(C)nc3[nH]2)c1"
  studySystem: "SNB-75 CNS"
  TGI: "0.671 µM"
- compound: "CC1(C)C(c2ccccc2)=[N+]([O-])C(C)(C)N1O"
  studySystem: "SNB-75 CNS"
  TGI: "> 10 µM"

---

Test system: UACC-257 melanoma
protocolDetails: NCI tumour cell line growth inhibition, 48 h

- compound: "O=C1CCC(=Nc2ccc(Cl)cc2)N1C(=O)COc1ccc(OCC(=O)N2C(=O)CSC2=Nc2ccc(Cl)cc2)cc1"
  TGI: "> 100 µM"
- compound: "Cc1nn(C(=O)Cc2ccccc2)c2c1C(c1ccccc1O)SC(N)=N2 (stereo unspecified)"
  TGI: "> 100 µM"
- compound: "CC1(C)SC2C(NC(=O)C(N)c3ccccc3)C(=O)N2C1C(=O)O (stereo unspecified)"
  TGI: "> 100 µM"
- compound: "CN(CCCN)CCCNc1nc2ccccc2c2[nH]c3ccccc3c12"
  TGI: "3.49 µM"
- compound: "Cc1ccc(-c2c(N)[n+]([O-])c3ccccc3[n+]2[O-])cc1"
  TGI: "23.5 µM"
- compound: "Cc1ccccc1OC(C)C(=O)NN1C(=O)CC(=O)N(c2ccc(Cl)cc2)C1=S (stereo unspecified)"
  TGI: "> 100 µM"
- compound: "COC(=O)c1csnn1"
  TGI: "> 100 µM"
- compound: "Cc1cc2c(C)cc(=O)[nH]c2cc1N"
  TGI: "> 100 µM"
- compound: "C/C(N=Nc1nc2ccccc2s1)=C1/C=CC=CN1O"
  TGI: "> 100 µM"
- compound: "CC(C)(C)N=c1n(C(C)(C)C)oc(=O)n1C(C)(C)C"
  TGI: "> 100 µM"
- compound: "COc1cc2c(cc1OC)C1c3ccccc3CCN1CC2 (stereo unspecified)"
  TGI: "> 100 µM"
